Sourced from ChEMBL document CHEMBL1201862

Each entry below lists one item and its recorded AC50 value.
Target: Cytochrome P450 1A2 (Homo sapiens, UniProt P05177);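 further: PubChem cytochrome P450 panel assay, CYP1A2 panel member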
Sequence (P05177 whole entry): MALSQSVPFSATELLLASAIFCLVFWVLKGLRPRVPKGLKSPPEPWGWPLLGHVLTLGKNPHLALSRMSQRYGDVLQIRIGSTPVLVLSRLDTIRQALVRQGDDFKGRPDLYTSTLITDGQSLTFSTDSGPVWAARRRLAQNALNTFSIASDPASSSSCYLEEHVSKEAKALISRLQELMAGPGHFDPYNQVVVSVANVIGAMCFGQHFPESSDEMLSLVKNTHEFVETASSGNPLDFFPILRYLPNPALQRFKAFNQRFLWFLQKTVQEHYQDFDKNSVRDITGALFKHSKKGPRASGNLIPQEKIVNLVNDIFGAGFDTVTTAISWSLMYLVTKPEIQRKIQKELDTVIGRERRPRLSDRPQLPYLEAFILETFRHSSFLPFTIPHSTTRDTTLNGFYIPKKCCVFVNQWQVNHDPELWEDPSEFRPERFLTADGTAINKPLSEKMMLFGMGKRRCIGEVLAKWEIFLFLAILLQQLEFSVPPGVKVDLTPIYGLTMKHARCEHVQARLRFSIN

Known AC50 results, listed for orientation:
CCCSc1nc(C)cc(C)c1S(=O)(=O)c1ccccc1C; 11.2 µM (inconclusive)
CN(CCC#N)C(=O)c1ccc(CNS(=O)(=O)c2ccc(F)cc2)cc1; 2 µM (inconclusive)
COC(=O)C1CSC(C(=O)OC)N1C(=O)Nc1ccccc1 (stereo not given); 25.1 µM (inconclusive)
O=c1/c(=C\c2ccc(O)cc2)sc2n1C(c1ccccc1)C(c1ccccc1)=NN=2 (stereo not given); 4.47 µM (inconclusive)

// field: AC50; key: CSc1nc(C)cc(SC(C(C)=O)C(=O)Nc2ccccc2)n1 (stereo not given) ; value = 15.8 µM (inconclusive)

The molecule listed as COc1ccc(-c2nc(C#N)c(N3CCC(C(N)=O)CC3)o2)cc1OC has a reported AC50 of 12.6 µM (inconclusive)

Record Cc1scc(C(=O)NN=C(S)NCC2CCCO2)c1C (stereo not given) . Reported AC50: 11.2 µM (inconclusive)

GET /value?item= CC1(C)N(O)C(c2ccc(C(=O)O)cc2)=[N+]([O-])C1(C)C &field=AC50 returns 31.6 µM (inconclusive)

Entry COC(=O)[C@@]1(Cc2ccc(F)cc2)[C@H]2c3cc(C(=O)N4CCCC4)n(Cc4c(CO)ncc(C)c4O)c3C[C@H]2CN1C(=O)c1ccccc1 , AC50 reported as 20 µM (inconclusive)

Kindly note the recorded AC50 for CN(C)c1ncc2nc(-c3cccc(C#N)c3)c(=O)n(C[C@H]3CCCO3)c2n1 , which is 3.16 µM (inconclusive)
